Dear all, this message contains IC50 results, target or system TXK (Homo sapiens, UniProt P42681).
valueType: IC50 (nM)

molecule	valueType	unitInfo	limitOperator	numericResult
CC(C)(/C=C(\C#N)C(=O)N1CCC[C@@H](n2nc(-c3ccc(Oc4ccccc4)cc3F)c3c(N)ncnc32)C1)N1CCN(C2COC2)CC1 [PRN-1008, reference compound]	IC50	nM	=	0.48
C=CC(=O)Nc1cc(Nc2nc(-c3ccnc(N4CCc5c(sc6c5CCCC6)C4=O)c3CO)cn(C)c2=O)ccc1N1CCN(C2CCOCC2)C[C@H]1C(F)(F)F	IC50	nM	>	1000

###

Form field: IC50 (one value per entry).
Protein target, amino acids: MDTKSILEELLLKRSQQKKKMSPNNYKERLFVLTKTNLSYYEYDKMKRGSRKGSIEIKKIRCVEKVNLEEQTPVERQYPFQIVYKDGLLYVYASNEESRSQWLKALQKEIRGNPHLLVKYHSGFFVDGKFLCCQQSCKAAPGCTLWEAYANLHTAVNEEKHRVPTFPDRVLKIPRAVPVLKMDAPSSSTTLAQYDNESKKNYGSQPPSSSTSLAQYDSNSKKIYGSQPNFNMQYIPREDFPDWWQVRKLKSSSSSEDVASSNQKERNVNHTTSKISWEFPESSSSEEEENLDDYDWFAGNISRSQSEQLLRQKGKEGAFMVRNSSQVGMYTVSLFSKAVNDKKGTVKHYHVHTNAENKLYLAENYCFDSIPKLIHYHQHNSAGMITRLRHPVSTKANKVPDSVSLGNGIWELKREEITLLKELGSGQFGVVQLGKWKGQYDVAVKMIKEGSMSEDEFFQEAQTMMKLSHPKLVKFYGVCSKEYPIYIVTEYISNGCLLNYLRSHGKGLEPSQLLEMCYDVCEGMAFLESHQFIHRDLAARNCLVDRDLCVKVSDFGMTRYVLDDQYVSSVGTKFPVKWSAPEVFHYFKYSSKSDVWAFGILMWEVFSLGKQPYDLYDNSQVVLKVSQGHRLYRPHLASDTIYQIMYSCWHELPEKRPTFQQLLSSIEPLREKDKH

compound	IC50
C=CC(=O)Nc1cc(Nc2nc(-c3ccnc(N4CCn5c(cc6c5CC(C)(C)C6)C4=O)c3CO)cn(C)c2=O)ccc1N1CCN(C2CCOCC2)C[C@H]1C(F)(F)F	0.155 µM
CC(C)(/C=C(\C#N)C(=O)N1CCC[C@@H](n2nc(-c3ccc(Oc4ccccc4)cc3F)c3c(N)ncnc32)C1)N1CCN(C2COC2)CC1 [PRN-1008, reference compound]	0.00036 µM
